// data source = paper PMC4351142

assayedTarget: CHIP-TPR domain (HsCHIP 21-154) (human) (UniProt Q9UNE7)
Sequence (Q9UNE7 21-154): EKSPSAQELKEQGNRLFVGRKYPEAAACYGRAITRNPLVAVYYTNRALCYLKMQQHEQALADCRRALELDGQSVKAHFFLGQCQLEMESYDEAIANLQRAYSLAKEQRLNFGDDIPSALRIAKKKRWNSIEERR
procedureDetails: NMR titration
valueType: Kd

Which Kd is reported for this substance? Hsc70-lid-tail-ΔGPTIEEVD (domain or fragment)
> 100 µM
